Target: HDAC (Mouse Liver Extract)
Experiment: Histone Deacetylase (HDAC) Inhibition Assay using Boc-Lys (Ac)-AMC Substrate
Format: biochemical
Details: Mouse liver enzyme, 30 minutes at 37° C.
QUANTITY KIND: IC50 (µM)

As a guide, the following entries are already answered.
O=C(/C=C/c1ccc(CNC23CC4CC(CC(CO)(C4)C2)C3)cc1)NO [Example 9]: 0.24
COC12CC3CC(CC(NCc4ccc(/C=C/C(=O)NO)cc4)(C3)C1)C2 [Example 3]: 0.26
O=C(/C=C/c1ccc(CNCCC2C3CC4CC2CC(O)(C4)C3)cc1)NO (stereo not shown) [Example 19]: 0.028

P. O=C(/C=C/c1ccc(CNC(=O)CC23CC4CC(CC(C4)C2)C3)cc1)NO [Example 23]
Q. O=C(C=Cc1ccc(CNCCNC(=O)C23CC4CC(CC(C4)C2)C3)cc1)NO [Example 29]
R. CCOC12CC3CC(CC(NCc4ccc(/C=C/C(=O)NO)cc4)(C3)C1)C2 [Example 4]
S. O=C(/C=C/c1ccc(CNC(=O)CC2C3CC4CC2CC(O)(C4)C3)cc1)NO (stereo not shown) [Example 24]
Ascending by IC50, please. Please respond with the labels ordered as the question requires. P, Q, S, R

The measurements presented in this section are drawn from patent US20110212943A1.
